Listed here are compounds together with their documented viability at 28.5 h, 10 µM.
METHOD_SUMMARY: in vitro
CONDITION_SUMMARY: human, hela cells, % viability

[
  {
    "COMPOUND": "COc1ccc(S(=O)(=O)N2CCOCC2)cc1C(=O)N1CCCC(C)C1 (stereo not drawn) [CBK305011]",
    "viability at 28.5 h, 10 µM [%]": 110
  },
  {
    "COMPOUND": "COC(=O)C1CCCN1C(=O)C1(Oc2ccc(C)cc2)CCNCC1 (stereo not drawn) [CBK306655]",
    "viability at 28.5 h, 10 µM [%]": 96.5
  },
  {
    "COMPOUND": "CC(C)N(C)CC(=O)N(C)c1nc2c(s1)CC(c1ccccc1)CC2 (stereo not drawn) [CBK305535]",
    "viability at 28.5 h, 10 µM [%]": 93.7
  }
]

====

METHOD_SUMMARY: in vitro
CONDITION_SUMMARY: human, hela cells, % viability
This listing pairs compounds with measured viability at 28.5 h, 10 µM.

[
  {
    "COMPOUND": "COC(=O)C1CCCN1CC(=O)NCc1ccc(OCC(N)=O)cc1 (centres unmarked)",
    "viability at 28.5 h, 10 µM (%)": 86.1
  },
  {
    "COMPOUND": "Cc1ccc(S(=O)(=O)N(CC(=O)O)c2ccc(Cl)cc2)cc1",
    "viability at 28.5 h, 10 µM (%)": 106
  },
  {
    "COMPOUND": "COCCCNC(=O)C1CCN(c2nc3c(-c4cccc(C)c4)csc3c(=O)[nH]2)CC1",
    "viability at 28.5 h, 10 µM (%)": 96.6
  },
  {
    "COMPOUND": "CN1CCN(C(=O)CN(c2ccccc2)S(=O)(=O)N(C)C)CC1",
    "viability at 28.5 h, 10 µM (%)": 86.6
  },
  {
    "COMPOUND": "Cc1ccc(-c2cnc(NC(=O)Cn3cccn3)n2C)cc1C",
    "viability at 28.5 h, 10 µM (%)": 102
  },
  {
    "COMPOUND": "Cn1c(=O)c2c(nc(SCC(=O)O)n2C)n(C)c1=O",
    "viability at 28.5 h, 10 µM (%)": 88.3
  },
  {
    "COMPOUND": "Cc1ccc(CN(CCCn2ccnc2)Cc2ccccc2O)s1",
    "viability at 28.5 h, 10 µM (%)": 103
  },
  {
    "COMPOUND": "C[C@@H](Cn1c(C(F)(F)F)cc2cccnc21)NC(=O)C1CCC1",
    "viability at 28.5 h, 10 µM (%)": 109
  },
  {
    "COMPOUND": "Cc1nn(-c2ccc(F)cc2)c2c1C(c1ccc(C(=O)O)cc1)CC(=O)N2 (centres unmarked)",
    "viability at 28.5 h, 10 µM (%)": 101
  },
  {
    "COMPOUND": "Cc1ccc(CNC(=O)c2nnc(C(=O)Nc3cccc(Cl)c3)s2)o1",
    "viability at 28.5 h, 10 µM (%)": 95.2
  },
  {
    "COMPOUND": "CN(C(=O)NC1CCN(Cc2cccc(O)c2)CC1)C1CCS(=O)(=O)C1 (centres unmarked)",
    "viability at 28.5 h, 10 µM (%)": 83.5
  },
  {
    "COMPOUND": "CN(C)CCC1OC(=O)N(c2ccccc2)C1=O (centres unmarked) [CBK010134C]",
    "viability at 28.5 h, 10 µM (%)": 107
  },
  {
    "COMPOUND": "COc1cccc(C2(C(=O)N3CCc4nc[nH]c(=O)c4C3)CC2)c1",
    "viability at 28.5 h, 10 µM (%)": 83.3
  },
  {
    "COMPOUND": "O=C(Nc1ccc(N2CCCC2)c(F)c1)C1CC(=O)N(C2CC2)C1 (centres unmarked)",
    "viability at 28.5 h, 10 µM (%)": 100
  },
  {
    "COMPOUND": "O=C(Cc1coc2ccc3ccccc3c12)NNC(=O)c1ccccc1[N+](=O)[O-]",
    "viability at 28.5 h, 10 µM (%)": 90.6
  },
  {
    "COMPOUND": "Nc1nc(NCCc2ccccc2)nc(-c2cc(Cl)ccc2O)n1",
    "viability at 28.5 h, 10 µM (%)": 91.8
  },
  {
    "COMPOUND": "O=C(NC/C=C/c1cn(C2OC(CO)C(O)C2O)c(=O)[nH]c1=O)C(F)(F)F (centres unmarked)",
    "viability at 28.5 h, 10 µM (%)": 104
  },
  {
    "COMPOUND": "NC(C(=O)O)C(O)c1ccccc1[N+](=O)[O-] (centres unmarked)",
    "viability at 28.5 h, 10 µM (%)": 92.7
  },
  {
    "COMPOUND": "O=C(Nc1nc(OCC(F)(F)F)cnc1-c1ccc(Cl)cc1Cl)c1cc2ccccc2s1",
    "viability at 28.5 h, 10 µM (%)": 87.4
  },
  {
    "COMPOUND": "Cc1nc2c(c(=O)[nH]1)CN(Cc1cc(F)ccc1F)CC2",
    "viability at 28.5 h, 10 µM (%)": 86.9
  },
  {
    "COMPOUND": "CCn1cc(CN2CCC(O)(c3ccc(C)cc3)CC2)c(C)n1",
    "viability at 28.5 h, 10 µM (%)": 89.2
  },
  {
    "COMPOUND": "CSc1nnc(-c2ccccc2[N+](=O)[O-])n1CC(C)C",
    "viability at 28.5 h, 10 µM (%)": 98.4
  },
  {
    "COMPOUND": "CC(=O)Nc1cccc(-n2nnnc2SC2CCCC2)c1",
    "viability at 28.5 h, 10 µM (%)": 95.3
  },
  {
    "COMPOUND": "O=C(CC1C(=O)N(Cc2ccccc2)C(=S)N1Cc1ccccc1)Nc1ccccc1 (centres unmarked)",
    "viability at 28.5 h, 10 µM (%)": 97.3
  },
  {
    "COMPOUND": "Cc1cc(C[C@@H]2CCC[C@H]2NCc2nc3ccccc3[nH]2)on1",
    "viability at 28.5 h, 10 µM (%)": 87.3
  },
  {
    "COMPOUND": "COc1ccc(N2CC(NC(=O)Nc3ccccn3)CC2=O)cc1 (centres unmarked)",
    "viability at 28.5 h, 10 µM (%)": 96.9
  },
  {
    "COMPOUND": "CS(=O)(=O)CCNC(=O)c1cnc(-c2cccc(C(F)(F)F)c2)c(-c2ccncc2)c1",
    "viability at 28.5 h, 10 µM (%)": 105
  },
  {
    "COMPOUND": "COc1c(O)ccc(/C=N/NC(=O)COc2c(Br)cc(Br)cc2Br)c1[N+](=O)[O-]",
    "viability at 28.5 h, 10 µM (%)": 95.9
  },
  {
    "COMPOUND": "Cc1nc2c(C(=O)NCCCOC(C)C)cnn2c(C)c1Cc1cccc(Cl)c1",
    "viability at 28.5 h, 10 µM (%)": 97.1
  },
  {
    "COMPOUND": "Cc1ncccc1C(=O)N1CCC(c2cc3ccccc3cn2)CC1",
    "viability at 28.5 h, 10 µM (%)": 113
  },
  {
    "COMPOUND": "CC(=O)N1CCN(c2ccc(OCCO)cc2)CC1",
    "viability at 28.5 h, 10 µM (%)": 90.8
  },
  {
    "COMPOUND": "Brc1cn2ccnc2c(N2CCCC2)n1",
    "viability at 28.5 h, 10 µM (%)": 117
  }
]
